target: P2Y purinoceptor 1 (Meleagris gallopavo, UniProt P49652); test: Inhibition of 30 nM 2-MeSADP stimulation of 2PY1-mediated phospholipase C (PLC) activity in Turkey erythrocyte ghosts; type: functional
Sequence (P49652 whole entry): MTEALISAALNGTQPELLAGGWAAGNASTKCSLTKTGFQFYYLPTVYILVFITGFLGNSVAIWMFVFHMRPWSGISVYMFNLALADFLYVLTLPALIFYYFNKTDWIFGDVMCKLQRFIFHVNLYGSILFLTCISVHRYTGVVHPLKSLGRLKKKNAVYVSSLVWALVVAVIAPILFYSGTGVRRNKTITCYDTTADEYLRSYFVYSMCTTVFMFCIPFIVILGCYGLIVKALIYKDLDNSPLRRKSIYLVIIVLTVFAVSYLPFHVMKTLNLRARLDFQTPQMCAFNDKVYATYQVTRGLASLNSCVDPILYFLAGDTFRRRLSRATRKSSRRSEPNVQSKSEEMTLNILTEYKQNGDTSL
Values of IC50 strictly less than 600 nM map to met, and values of at least 600 nM map to not met.

In [3]: df
Out[3]:
                                   compound  class_label
0  CNc1ncnc2c1ncn2[C@@H]1C[C@H](COP(=O)(O)O)[C@H](OP(=O)(O)O)C1          met
1  Nc1ncnc2c1ncn2[C@@H]1C[C@H](COP(=O)(O)O)[C@H](OP(=O)(O)O)C1      not met
2  Nc1ncnc2c1ncn2C12CC(OP(=O)(O)O)C(COP(=O)(O)O)C1C2 (stereo not given)      not met
3  CNc1nc(Cl)nc2c1ncn2[C@@H]1C[C@H](OP(=O)(O)O)C1COP(=O)(O)O (stereo not given in full)      not met
4  CNc1nc(Cl)nc2c1ncn2[C@H]1C[C@@H](OP(=O)(O)O)[C@]2(COP(=O)(O)O)C[C@H]12          met
5  CNc1nc(N)nc2c1ncn2[C@@H]1C[C@H](COP(=O)(O)O)[C@H](OP(=O)(O)O)C1      not met
6  CNc1ncnc2c1ncn2C1COC(COP(=O)(O)OP(=O)(O)OP(=O)(O)O)C(O)C1 (stereo not given)      not met
7  CNc1ncnc2c1ncn2C1CC(OP(=O)(O)O)C2(COP(=O)(O)O)CC12 (stereo not given)          met
8  CNc1ncnc2c1ncn2C1COC(COP(=O)(O)O)C(OP(=O)(O)O)C1 (stereo not given)      not met
9  CNc1nc(Cl)nc2c1ncn2C1COC(COP(=O)(O)O)C(OP(=O)(O)O)C1 (stereo not given)          met

====

molecular target: P2Y purinoceptor 1 (Meleagris gallopavo) (UniProt P49652); experiment: In vitro stimulation of 2PY1 purinoceptor mediated phospholipase C (PLC) activity in Turkey Erythrocyte Ghosts; assay type: functional
Quick reference for Max increase among some molecules
value-kind: Max increase

>>> print(df.to_string())
                                   molecule                               test_system    value_kind  reported_value
0  Nc1ncnc2c1ncn2C12CC(OP(=O)(O)O)C(COP(=O)(O)O)C1C2 (centres undefined)  P2Y purinoceptor 1 (Meleagris gallopavo) (UniProt P49652)  Max increase             50%
1  CNc1nc(SC)nc2c1ncn2[C@H]1C[C@H](OP(=O)(O)O)[C@@H](COP(=O)(O)O)O1  P2Y purinoceptor 1 (Meleagris gallopavo) (UniProt P49652)  Max increase              6%
2  CNc1nc(N)nc2c1ncn2[C@@H]1C[C@H](COP(=O)(O)O)[C@H](OP(=O)(O)O)C1  P2Y purinoceptor 1 (Meleagris gallopavo) (UniProt P49652)  Max increase             26%
3  CNc1nc(N)nc2c1ncn2[C@H]1C[C@H](OP(=O)(O)O)[C@@H](COP(=O)(O)O)O1  P2Y purinoceptor 1 (Meleagris gallopavo) (UniProt P49652)  Max increase              4%
4  CNc1ncnc2c1ncn2C1COC(COP(=O)(O)OP(=O)(O)OP(=O)(O)O)C(O)C1 (centres undefined)  P2Y purinoceptor 1 (Meleagris gallopavo) (UniProt P49652)  Max increase             18%
5  Nc1ncnc2c1ncn2C1CN(CCP(=O)(O)O)CC(COP(=O)(O)OP(=O)(O)O)O1 (centres undefined)  P2Y purinoceptor 1 (Meleagris gallopavo) (UniProt P49652)  Max increase             11%
6  Nc1ncnc2c1ncn2C1CC(OP(=O)(O)O)C2(COP(=O)(O)O)CC12 (centres undefined)  P2Y purinoceptor 1 (Meleagris gallopavo) (UniProt P49652)  Max increase             92%
7  Nc1ncnc2c1ncn2[C@@H]1C[C@H](COP(=O)(O)O)[C@H](OP(=O)(O)O)C1  P2Y purinoceptor 1 (Meleagris gallopavo) (UniProt P49652)  Max increase             27%
8  Nc1ncnc2c1ncn2[C@@H]1CO[C@H](COP(=O)(O)O)[C@@H](OP(=O)(O)O)C1  P2Y purinoceptor 1 (Meleagris gallopavo) (UniProt P49652)  Max increase            100%

====

target: P2Y purinoceptor 1 (Meleagris gallopavo); assay: In vitro stimulation of 2PY1 purinoceptor mediated phospholipase C (PLC) activity in Turkey Erythrocyte Ghosts
Quick reference for EC50 among some compounds
value-kind: EC50 (µM)

                                   compound                               test_system  display_unit  reported_value
0  Nc1ncnc2c1ncn2C12CC(OP(=O)(O)O)C(COP(=O)(O)O)C1C2 (stereo not given)  P2Y purinoceptor 1 (Meleagris gallopavo)            µM            18.9
1  CNc1nc(N)nc2c1ncn2[C@@H]1C[C@H](COP(=O)(O)O)[C@H](OP(=O)(O)O)C1  P2Y purinoceptor 1 (Meleagris gallopavo)            µM            6.51
2  CNc1ncnc2c1ncn2C1COC(COP(=O)(O)OP(=O)(O)OP(=O)(O)O)C(O)C1 (stereo not given)  P2Y purinoceptor 1 (Meleagris gallopavo)            µM            9.35
3  Nc1ncnc2c1ncn2C1CC(OP(=O)(O)O)C2(COP(=O)(O)O)CC12 (stereo not given)  P2Y purinoceptor 1 (Meleagris gallopavo)            µM           0.155
4  Nc1ncnc2c1ncn2[C@@H]1C[C@H](COP(=O)(O)O)[C@H](OP(=O)(O)O)C1  P2Y purinoceptor 1 (Meleagris gallopavo)            µM            7.21

====

target: P2Y purinoceptor 1 (Meleagris gallopavo); test: Inhibition of 30 nM 2-MeSADP stimulation of 2PY1-mediated phospholipase C (PLC) activity in Turkey erythrocyte ghosts; type: functional
Quick reference for Max inhibition among some molecules
value-kind: Max inhibition (%)

In [3]: df
Out[3]:
                                    molecule  display_unit  reported_value
 0  CNc1nc(N)nc2c1ncn2[C@@H]1C[C@H](COP(=O)(O)O)[C@H](OP(=O)(O)O)C1             %              74
 1  CNc1ncnc2c1ncn2C1COC(COP(=O)(O)O)C(OP(=O)(O)O)C1 (stereo not given)             %             100
 2  Nc1ncnc2c1ncn2[C@@H]1C[C@H](COP(=O)(O)O)[C@H](OP(=O)(O)O)C1             %              73
 3  CNc1nc(Cl)nc2c1ncn2[C@H]1C[C@H](OP(=O)(O)O)[C@@H](COP(=O)(O)O)O1             %              95
 4  CNc1ncnc2c1ncn2C1CC(OP(=O)(O)O)C2(COP(=O)(O)O)CC12 (stereo not given)             %             100
 5  CNc1nc(Cl)nc2c1ncn2[C@@H]1C[C@H](OP(=O)(O)O)C1COP(=O)(O)O (stereo not given in full)             %             100
 6  CNc1ncnc2c1ncn2[C@@H]1C[C@H](COP(=O)(O)O)[C@H](OP(=O)(O)O)C1             %             100
 7  Nc1ncnc2c1ncn2C1CN(CCP(=O)(O)O)CC(COP(=O)(O)O)O1 (stereo not given)             %              37
 8  CNc1nc(Cl)nc2c1ncn2C1COC(COP(=O)(O)O)C(OP(=O)(O)O)C1 (stereo not given)             %             100
 9  CNc1ncnc2c1ncn2C1COC(COP(=O)(O)OP(=O)(O)OP(=O)(O)O)C(O)C1 (stereo not given)             %              82
10  CNc1nc(SC)nc2c1ncn2[C@H]1C[C@H](OP(=O)(O)O)[C@@H](COP(=O)(O)O)O1             %              94
11  CNc1nc(N)nc2c1ncn2[C@H]1C[C@H](OP(=O)(O)O)[C@@H](COP(=O)(O)O)O1             %              96
12  Nc1ncnc2c1ncn2C12CC(OP(=O)(O)O)C(COP(=O)(O)O)C1C2 (stereo not given)             %              42
13  C[C@H]1O[C@@H](n2cnc3c(N)ncnc32)[C@H](OP(=O)(O)O)[C@@H]1OP(=O)(O)O             %              47
14  CNc1nc(Cl)nc2c1ncn2[C@H]1C[C@@H](OP(=O)(O)O)[C@]2(COP(=O)(O)O)C[C@H]12             %             100
